Property: pIC50; scope: individual molecules
- measured.target: SGK3 (UniProt Q96BR1)
- method.description: pIC50, kinobeads binding competition
- settings: cell material: Lysate mix
Reply with just the number.

// below: answered molecules
* O=C(NCCNC(=O)c1cc(Nc2cc(C3CC3)[nH]n2)nc(N2CCN(Cc3ccc(S(=O)(=O)F)cc3)CC2)n1)OC1CC/C=C/CCC1 (stereo unspecified) | 4.88
* C#CCNC(=O)c1cc(Nc2cc(C3CC3)[nH]n2)nc(N2CCN(Cc3ccc(S(=O)(=O)F)cc3)CC2)n1 | 5.96
* CCNC(=O)c1cc(Nc2cc(C3CC3)[nH]n2)nc(N2CCN(Cc3ccc(S(=O)(=O)F)cc3)CC2)n1 | 5.67
* Cc1cc(Nc2cc(C(=O)NCCNC(=O)OC3CC/C=C/CCC3)nc(N3CCN(Cc4ccc(S(=O)(=O)F)cc4)CC3)n2)n[nH]1 (stereo unspecified) | 5.22

Task item: For the molecule shown here, CCNC(=O)c1cc(Nc2cc(C)[nH]n2)nc(N2CCN(Cc3ccc(S(=O)(=O)F)cc3)CC2)n1 , give the reported pIC50.
Reply: 5.98

Task item: For the molecule shown here, C#CCNC(=O)c1cc(Nc2cc(C)[nH]n2)nc(N2CCN(Cc3ccc(S(=O)(=O)F)cc3)CC2)n1 , give the reported pIC50.
Reply: 6.06

====

- measured.target: UniProt Q02779
- method.description: pIC50, kinobeads binding competition
- settings: cell material: Lysate mix
Property: pIC50; scope: individual compounds

// below: answered compounds
* CCNC(=O)c1cc(Nc2cc(C)[nH]n2)nc(N2CCN(Cc3ccc(S(=O)(=O)F)cc3)CC2)n1 | < 4.52
* O=C(NCCNC(=O)c1cc(Nc2cc(C3CC3)[nH]n2)nc(N2CCN(Cc3ccc(S(=O)(=O)F)cc3)CC2)n1)OC1CC/C=C/CCC1 (stereo not given) | < 4.52
* Cc1cc(Nc2cc(C(=O)NCCNC(=O)OC3CC/C=C/CCC3)nc(N3CCN(Cc4ccc(S(=O)(=O)F)cc4)CC3)n2)n[nH]1 (stereo not given) | < 4.52
* CCNC(=O)c1cc(Nc2cc(C3CC3)[nH]n2)nc(N2CCN(Cc3ccc(S(=O)(=O)F)cc3)CC2)n1 | 5.14

Next item in the queue.
Task item: For the compound shown here, C#CCNC(=O)c1cc(Nc2cc(C)[nH]n2)nc(N2CCN(Cc3ccc(S(=O)(=O)F)cc3)CC2)n1 , give the reported pIC50.
Reply: < 4.52

====

- measured.target: UniProt P04629
- method.description: pIC50, kinobeads binding competition
- settings: cell material: Lysate mix
Property: pIC50; scope: individual molecules

// below: answered molecules
* C#CCNC(=O)c1cc(Nc2cc(C)[nH]n2)nc(N2CCN(Cc3ccc(S(=O)(=O)F)cc3)CC2)n1 | < 4.52
* CCNC(=O)c1cc(Nc2cc(C3CC3)[nH]n2)nc(N2CCN(Cc3ccc(S(=O)(=O)F)cc3)CC2)n1 | 5.58

Task item: For the molecule shown here, O=C(NCCNC(=O)c1cc(Nc2cc(C3CC3)[nH]n2)nc(N2CCN(Cc3ccc(S(=O)(=O)F)cc3)CC2)n1)OC1CC/C=C/CCC1 (stereo unspecified) , give the reported pIC50.
Reply: < 4.52

Task item: For the molecule shown here, Cc1cc(Nc2cc(C(=O)NCCNC(=O)OC3CC/C=C/CCC3)nc(N3CCN(Cc4ccc(S(=O)(=O)F)cc4)CC3)n2)n[nH]1 (stereo unspecified) , give the reported pIC50.
Reply: < 4.52

Task item: For the molecule shown here, C#CCNC(=O)c1cc(Nc2cc(C3CC3)[nH]n2)nc(N2CCN(Cc3ccc(S(=O)(=O)F)cc3)CC2)n1 , give the reported pIC50.
Reply: 5.39

Task item: For the molecule shown here, CCNC(=O)c1cc(Nc2cc(C)[nH]n2)nc(N2CCN(Cc3ccc(S(=O)(=O)F)cc3)CC2)n1 , give the reported pIC50.
Reply: < 4.52

====

- measured.target: CDK10 (UniProt Q15131)
- Sequence (Q15131 whole entry): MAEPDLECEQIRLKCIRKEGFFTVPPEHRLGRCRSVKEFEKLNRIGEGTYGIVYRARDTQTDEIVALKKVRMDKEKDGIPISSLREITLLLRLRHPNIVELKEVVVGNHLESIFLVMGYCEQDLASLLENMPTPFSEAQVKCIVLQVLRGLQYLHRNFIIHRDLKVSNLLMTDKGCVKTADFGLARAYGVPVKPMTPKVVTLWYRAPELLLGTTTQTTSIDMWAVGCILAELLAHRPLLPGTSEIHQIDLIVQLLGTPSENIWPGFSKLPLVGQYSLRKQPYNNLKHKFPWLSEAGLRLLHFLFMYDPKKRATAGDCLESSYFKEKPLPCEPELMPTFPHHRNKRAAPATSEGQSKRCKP
- method.description: pIC50, kinobeads binding competition
- settings: cell material: Lysate mix
Property: pIC50; scope: individual compounds
Reply with just the number.

• C#CCNC(=O)c1cc(Nc2cc(C3CC3)[nH]n2)nc(N2CCN(Cc3ccc(S(=O)(=O)F)cc3)CC2)n1 = 5.82

Task item: Report pIC50 for CCNC(=O)c1cc(Nc2cc(C3CC3)[nH]n2)nc(N2CCN(Cc3ccc(S(=O)(=O)F)cc3)CC2)n1 tested on CDK10 (UniProt Q15131).
Reply: 5.29

====

- measured.target: HIPK2 (UniProt Q9H2X6)
- method.description: pIC50, kinobeads binding competition
- settings: cell material: Lysate mix
recorded.metric: pIC50
Reply with just the number.

// below: answered compounds
- CCNC(=O)c1cc(Nc2cc(C)[nH]n2)nc(N2CCN(Cc3ccc(S(=O)(=O)F)cc3)CC2)n1: 4.77
- CCNC(=O)c1cc(Nc2cc(C3CC3)[nH]n2)nc(N2CCN(Cc3ccc(S(=O)(=O)F)cc3)CC2)n1: 5.72
- C#CCNC(=O)c1cc(Nc2cc(C)[nH]n2)nc(N2CCN(Cc3ccc(S(=O)(=O)F)cc3)CC2)n1: 4.98

Next item in the queue.
Task item: Report pIC50 for C#CCNC(=O)c1cc(Nc2cc(C3CC3)[nH]n2)nc(N2CCN(Cc3ccc(S(=O)(=O)F)cc3)CC2)n1 tested on HIPK2 (UniProt Q9H2X6).
Reply: 5.92

====

- measured.target: UniProt Q5S007
- Sequence (Q5S007 whole entry): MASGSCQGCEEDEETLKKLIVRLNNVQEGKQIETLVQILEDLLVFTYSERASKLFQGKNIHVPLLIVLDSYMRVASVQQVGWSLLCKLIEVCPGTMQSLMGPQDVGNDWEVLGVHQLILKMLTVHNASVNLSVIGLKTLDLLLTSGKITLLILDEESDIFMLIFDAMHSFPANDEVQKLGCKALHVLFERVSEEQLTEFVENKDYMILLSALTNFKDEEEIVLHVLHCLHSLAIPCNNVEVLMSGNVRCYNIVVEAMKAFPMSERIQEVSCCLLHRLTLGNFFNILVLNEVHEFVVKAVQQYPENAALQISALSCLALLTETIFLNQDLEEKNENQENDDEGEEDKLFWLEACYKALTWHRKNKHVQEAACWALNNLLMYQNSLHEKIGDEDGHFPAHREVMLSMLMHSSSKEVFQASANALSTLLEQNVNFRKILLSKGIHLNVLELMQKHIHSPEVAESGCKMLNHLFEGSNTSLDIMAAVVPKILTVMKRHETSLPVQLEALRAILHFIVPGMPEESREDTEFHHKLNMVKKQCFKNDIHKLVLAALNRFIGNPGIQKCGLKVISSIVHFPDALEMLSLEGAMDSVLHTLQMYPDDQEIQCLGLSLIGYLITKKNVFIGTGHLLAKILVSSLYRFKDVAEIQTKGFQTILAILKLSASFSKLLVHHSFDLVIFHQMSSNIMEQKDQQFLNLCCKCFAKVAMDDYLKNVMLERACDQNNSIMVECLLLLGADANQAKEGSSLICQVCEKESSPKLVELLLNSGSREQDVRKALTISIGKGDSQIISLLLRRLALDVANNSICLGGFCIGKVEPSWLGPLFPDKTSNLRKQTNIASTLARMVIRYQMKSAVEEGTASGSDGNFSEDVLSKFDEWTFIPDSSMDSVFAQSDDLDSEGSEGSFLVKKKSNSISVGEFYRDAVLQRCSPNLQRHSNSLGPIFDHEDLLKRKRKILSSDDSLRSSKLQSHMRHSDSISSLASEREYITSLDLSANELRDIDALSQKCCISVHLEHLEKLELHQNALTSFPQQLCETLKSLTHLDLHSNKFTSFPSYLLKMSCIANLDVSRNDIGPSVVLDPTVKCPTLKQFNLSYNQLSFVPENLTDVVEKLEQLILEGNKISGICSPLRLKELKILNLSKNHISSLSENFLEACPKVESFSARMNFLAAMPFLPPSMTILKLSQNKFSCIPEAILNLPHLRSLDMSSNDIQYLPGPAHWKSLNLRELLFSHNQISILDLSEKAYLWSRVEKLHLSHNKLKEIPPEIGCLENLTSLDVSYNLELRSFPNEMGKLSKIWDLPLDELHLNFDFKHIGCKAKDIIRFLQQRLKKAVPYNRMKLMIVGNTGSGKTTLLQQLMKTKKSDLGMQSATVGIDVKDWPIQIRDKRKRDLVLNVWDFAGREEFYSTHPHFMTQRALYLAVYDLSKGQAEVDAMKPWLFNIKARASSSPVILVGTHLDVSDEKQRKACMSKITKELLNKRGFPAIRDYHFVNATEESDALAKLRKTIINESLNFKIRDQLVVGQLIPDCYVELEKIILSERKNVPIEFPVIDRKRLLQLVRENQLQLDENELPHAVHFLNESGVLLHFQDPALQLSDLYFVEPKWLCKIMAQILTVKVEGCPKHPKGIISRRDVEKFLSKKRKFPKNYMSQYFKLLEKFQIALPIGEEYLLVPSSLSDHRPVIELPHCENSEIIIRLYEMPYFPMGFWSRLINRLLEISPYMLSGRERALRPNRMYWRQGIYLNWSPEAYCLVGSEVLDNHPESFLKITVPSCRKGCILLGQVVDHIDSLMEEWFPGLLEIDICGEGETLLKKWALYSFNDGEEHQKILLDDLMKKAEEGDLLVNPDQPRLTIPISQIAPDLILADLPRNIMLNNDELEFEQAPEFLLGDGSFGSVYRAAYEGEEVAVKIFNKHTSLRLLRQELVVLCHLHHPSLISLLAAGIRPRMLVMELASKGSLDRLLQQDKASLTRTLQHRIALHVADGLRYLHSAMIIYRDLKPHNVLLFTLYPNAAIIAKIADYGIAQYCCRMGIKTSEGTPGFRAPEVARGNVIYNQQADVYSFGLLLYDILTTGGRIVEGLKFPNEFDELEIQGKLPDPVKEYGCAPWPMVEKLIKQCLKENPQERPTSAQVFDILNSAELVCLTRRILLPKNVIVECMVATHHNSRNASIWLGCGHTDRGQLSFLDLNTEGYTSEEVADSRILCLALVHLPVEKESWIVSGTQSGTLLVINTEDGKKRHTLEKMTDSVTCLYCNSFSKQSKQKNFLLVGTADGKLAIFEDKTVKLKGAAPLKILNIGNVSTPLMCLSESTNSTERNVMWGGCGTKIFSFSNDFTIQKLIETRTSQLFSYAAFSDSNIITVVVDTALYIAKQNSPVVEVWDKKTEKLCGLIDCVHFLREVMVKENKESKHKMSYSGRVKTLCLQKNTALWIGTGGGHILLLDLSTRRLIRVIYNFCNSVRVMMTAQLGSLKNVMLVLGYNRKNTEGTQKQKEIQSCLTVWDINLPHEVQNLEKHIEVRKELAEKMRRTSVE
- method.description: pIC50, kinobeads binding competition
- settings: cell material: Lysate mix
recorded.metric: pIC50

- C#CCNC(=O)c1cc(Nc2cc(C)[nH]n2)nc(N2CCN(Cc3ccc(S(=O)(=O)F)cc3)CC2)n1: 5.27
- O=C(NCCNC(=O)c1cc(Nc2cc(C3CC3)[nH]n2)nc(N2CCN(Cc3ccc(S(=O)(=O)F)cc3)CC2)n1)OC1CC/C=C/CCC1 (stereo unspecified): < 4.52
- C#CCNC(=O)c1cc(Nc2cc(C3CC3)[nH]n2)nc(N2CCN(Cc3ccc(S(=O)(=O)F)cc3)CC2)n1: 5.64

Task item: For the compound shown here, Cc1cc(Nc2cc(C(=O)NCCNC(=O)OC3CC/C=C/CCC3)nc(N3CCN(Cc4ccc(S(=O)(=O)F)cc4)CC3)n2)n[nH]1 (stereo unspecified) , give the reported pIC50.
Reply: < 4.52

Task item: For the compound shown here, CCNC(=O)c1cc(Nc2cc(C)[nH]n2)nc(N2CCN(Cc3ccc(S(=O)(=O)F)cc3)CC2)n1 , give the reported pIC50.
Reply: 5.28

Task item: For the compound shown here, CCNC(=O)c1cc(Nc2cc(C3CC3)[nH]n2)nc(N2CCN(Cc3ccc(S(=O)(=O)F)cc3)CC2)n1 , give the reported pIC50.
Reply: 5.46

====

- measured.target: CAMKK2 (UniProt Q96RR4)
- Sequence (Q96RR4 whole entry, looked up): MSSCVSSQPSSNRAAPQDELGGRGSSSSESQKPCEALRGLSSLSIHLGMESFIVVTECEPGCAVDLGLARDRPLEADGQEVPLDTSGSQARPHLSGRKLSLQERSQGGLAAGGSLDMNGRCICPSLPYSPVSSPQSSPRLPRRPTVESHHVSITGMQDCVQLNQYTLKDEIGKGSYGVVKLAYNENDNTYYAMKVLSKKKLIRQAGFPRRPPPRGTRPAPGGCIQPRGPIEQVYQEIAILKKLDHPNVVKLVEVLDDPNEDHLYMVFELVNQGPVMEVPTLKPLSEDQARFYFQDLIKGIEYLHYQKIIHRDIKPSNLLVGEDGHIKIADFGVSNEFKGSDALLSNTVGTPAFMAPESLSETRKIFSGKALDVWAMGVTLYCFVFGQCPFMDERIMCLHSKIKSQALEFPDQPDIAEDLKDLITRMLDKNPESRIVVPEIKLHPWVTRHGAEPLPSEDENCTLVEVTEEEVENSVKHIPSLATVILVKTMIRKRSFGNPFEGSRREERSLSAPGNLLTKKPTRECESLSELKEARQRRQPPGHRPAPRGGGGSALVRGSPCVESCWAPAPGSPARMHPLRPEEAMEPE
- method.description: pIC50, kinobeads binding competition
- settings: cell material: Lysate mix
recorded.metric: pIC50
Reply with just the number.

// below: answered compounds
* O=C(NCCNC(=O)c1cc(Nc2cc(C3CC3)[nH]n2)nc(N2CCN(Cc3ccc(S(=O)(=O)F)cc3)CC2)n1)OC1CC/C=C/CCC1 (stereo unspecified) | 5
* C#CCNC(=O)c1cc(Nc2cc(C3CC3)[nH]n2)nc(N2CCN(Cc3ccc(S(=O)(=O)F)cc3)CC2)n1 | 5.88

Next item in the queue.
Task item: For the compound shown here, CCNC(=O)c1cc(Nc2cc(C3CC3)[nH]n2)nc(N2CCN(Cc3ccc(S(=O)(=O)F)cc3)CC2)n1 , give the reported pIC50.
Reply: 5.6

====

Property: pIC50; scope: individual molecules
- measured.target: RPS6KA4 (UniProt O75676)
- Sequence (O75676 whole entry, looked up): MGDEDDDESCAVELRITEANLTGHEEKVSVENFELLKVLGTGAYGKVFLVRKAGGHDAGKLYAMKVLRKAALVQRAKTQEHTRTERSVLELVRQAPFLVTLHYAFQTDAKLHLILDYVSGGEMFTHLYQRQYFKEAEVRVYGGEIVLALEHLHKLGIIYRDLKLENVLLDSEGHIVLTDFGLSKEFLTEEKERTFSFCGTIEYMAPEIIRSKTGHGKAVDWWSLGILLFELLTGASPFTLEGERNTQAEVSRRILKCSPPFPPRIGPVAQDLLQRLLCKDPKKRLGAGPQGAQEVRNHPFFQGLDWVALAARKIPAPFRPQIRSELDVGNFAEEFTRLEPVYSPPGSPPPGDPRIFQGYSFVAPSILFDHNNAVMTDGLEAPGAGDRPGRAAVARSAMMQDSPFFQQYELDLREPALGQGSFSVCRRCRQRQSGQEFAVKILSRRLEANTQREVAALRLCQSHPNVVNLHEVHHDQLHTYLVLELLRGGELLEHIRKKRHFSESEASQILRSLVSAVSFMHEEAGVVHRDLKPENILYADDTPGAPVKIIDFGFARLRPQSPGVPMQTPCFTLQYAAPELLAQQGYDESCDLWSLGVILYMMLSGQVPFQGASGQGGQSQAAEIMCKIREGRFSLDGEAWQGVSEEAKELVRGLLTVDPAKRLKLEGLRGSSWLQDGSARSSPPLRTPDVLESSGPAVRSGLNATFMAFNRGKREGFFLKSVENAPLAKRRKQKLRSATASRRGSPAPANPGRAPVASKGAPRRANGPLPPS
- method.description: pIC50, kinobeads binding competition
- settings: cell material: Lysate mix
Reply with just the number.

// below: answered molecules
- C#CCNC(=O)c1cc(Nc2cc(C3CC3)[nH]n2)nc(N2CCN(Cc3ccc(S(=O)(=O)F)cc3)CC2)n1: 5.56
- CCNC(=O)c1cc(Nc2cc(C3CC3)[nH]n2)nc(N2CCN(Cc3ccc(S(=O)(=O)F)cc3)CC2)n1: 5.34

Next item in the queue.
Task item: For the molecule shown here, C#CCNC(=O)c1cc(Nc2cc(C)[nH]n2)nc(N2CCN(Cc3ccc(S(=O)(=O)F)cc3)CC2)n1 , give the reported pIC50.
Reply: 4.84

====

- measured.target: TGFBR1 (UniProt P36897)
- Sequence (P36897 whole entry): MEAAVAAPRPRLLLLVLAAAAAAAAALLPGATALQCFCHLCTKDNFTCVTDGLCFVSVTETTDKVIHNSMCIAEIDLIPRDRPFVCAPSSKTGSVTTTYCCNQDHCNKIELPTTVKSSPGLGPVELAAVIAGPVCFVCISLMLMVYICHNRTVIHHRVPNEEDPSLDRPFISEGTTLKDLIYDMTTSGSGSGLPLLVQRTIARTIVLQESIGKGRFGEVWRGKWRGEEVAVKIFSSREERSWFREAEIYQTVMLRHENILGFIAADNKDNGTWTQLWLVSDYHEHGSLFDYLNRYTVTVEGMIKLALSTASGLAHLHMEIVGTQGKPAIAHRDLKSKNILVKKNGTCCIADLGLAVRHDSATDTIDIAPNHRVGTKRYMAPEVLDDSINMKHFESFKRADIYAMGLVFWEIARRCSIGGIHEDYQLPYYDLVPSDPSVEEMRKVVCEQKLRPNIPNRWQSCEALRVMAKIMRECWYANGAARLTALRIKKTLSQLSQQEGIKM
- method.description: pIC50, kinobeads binding competition
- settings: cell material: Lysate mix
Property: pIC50; scope: individual compounds
Reply with just the number.

* C#CCNC(=O)c1cc(Nc2cc(C3CC3)[nH]n2)nc(N2CCN(Cc3ccc(S(=O)(=O)F)cc3)CC2)n1 | 5.46
* CCNC(=O)c1cc(Nc2cc(C3CC3)[nH]n2)nc(N2CCN(Cc3ccc(S(=O)(=O)F)cc3)CC2)n1 | 5.41
* CCNC(=O)c1cc(Nc2cc(C)[nH]n2)nc(N2CCN(Cc3ccc(S(=O)(=O)F)cc3)CC2)n1 | 4.78

Next item in the queue.
Task item: For the compound shown here, C#CCNC(=O)c1cc(Nc2cc(C)[nH]n2)nc(N2CCN(Cc3ccc(S(=O)(=O)F)cc3)CC2)n1 , give the reported pIC50.
Reply: 4.71
